Values compiled from patent US20110183928A1.

# System under test: androgen receptor (AR) (Homo sapiens, UniProt P10275)
# Construct: of the androgen receptor (AR, amino acids 667-919); expressed in transfected cells; host or cells: CHO K1
# Sequence (P10275 667-919): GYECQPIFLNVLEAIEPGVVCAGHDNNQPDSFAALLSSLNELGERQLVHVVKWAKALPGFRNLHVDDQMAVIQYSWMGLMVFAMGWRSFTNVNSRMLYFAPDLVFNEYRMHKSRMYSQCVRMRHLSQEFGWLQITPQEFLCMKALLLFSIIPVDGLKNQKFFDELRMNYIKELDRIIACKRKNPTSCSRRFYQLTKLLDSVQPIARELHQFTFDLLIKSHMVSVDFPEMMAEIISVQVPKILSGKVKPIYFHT
# Experiment notes: Cellular in vitro assay, GAL4-AR chimera luciferase reporter in CHO K1 cells (selectivity)
# Format: cell-based
# Measurement conditions: GAL4-AR ligand-binding domain chimera, agonist dihydrotestosterone
Attribute: IC50
Recorded metric: IC50 (nM)

INSERT INTO results (compound, recorded_metric, quantitative_result) VALUES
  ('CCc1cccc2c(C(CCCO)c3ccc(C(F)(F)F)cc3)c[nH]c12 (single isomer, unassigned) [Example 3-1]', 'IC50', 3650),
  ('Cc1cccc2c(C(CCCC#N)c3ccc(C(F)(F)F)cc3)c[nH]c12 (single isomer, unassigned) [Example 8-1]', 'IC50', 1530),
  ('CS(=O)(=O)Nc1cccc2c(C(CCC#N)c3ccc(C(F)(F)F)cc3)c[nH]c12 (single isomer, unassigned) [Example 17-1]', 'IC50', 2270);
